# assay context: in isopentanol, 308.15 K
measured metric: solubility (mole fraction)
The answer should be a number; do not append a unit.

Lookup: What measured solubility (mole fraction) goes with COCCOC(=O)C1=C(C)NC(C)=C(C(=O)OC(C)C)C1c1cccc([N+](=O)[O-])c1 (stereo unspecified) ?
Found: 0.0142

---

# assay context: in isopropanol, 278.15 K
measured metric: solubility (mole fraction)
The answer should be written as a number, with no unit following it.

Lookup: So what's the measured solubility (mole fraction) for this one? COCCOC(=O)C1=C(C)NC(C)=C(C(=O)OC(C)C)C1c1cccc([N+](=O)[O-])c1 (stereo unspecified)
Found: 0.0117

---

# assay context: in ethyl formate, 283.15 K
measured metric: solubility (mole fraction)
Please reply with the number alone, leaving off any unit.

Lookup: What does the record list as solubility (mole fraction) for COCCOC(=O)C1=C(C)NC(C)=C(C(=O)OC(C)C)C1c1cccc([N+](=O)[O-])c1 (stereo unspecified) ?
Found: 0.0017

---

# assay context: in cyclohexanone, 308.15 K
measured metric: solubility (mole fraction)
Returns: the value as a bare number; no unit string appended.

Lookup: Recorded solubility (mole fraction) for COCCOC(=O)C1=C(C)NC(C)=C(C(=O)OC(C)C)C1c1cccc([N+](=O)[O-])c1 (stereo unspecified) , please?
Found: 0.0297

---

# assay context: in isopentanol, 278.15 K
measured metric: solubility (mole fraction)

Lookup: Any idea what solubility (mole fraction) was measured for COCCOC(=O)C1=C(C)NC(C)=C(C(=O)OC(C)C)C1c1cccc([N+](=O)[O-])c1 (stereo unspecified) ?
Found: 0.00609

---

# assay context: in ethyl formate, 313.15 K
measured metric: solubility (mole fraction)

Lookup: Consider the compound COCCOC(=O)C1=C(C)NC(C)=C(C(=O)OC(C)C)C1c1cccc([N+](=O)[O-])c1 (stereo unspecified) and give its measured solubility (mole fraction).
Found: 0.00341

---

# assay context: in n-butanol, 278.15 K
measured metric: solubility (mole fraction)
Keep it simple and answer with nothing but the number.

Lookup: Entry COCCOC(=O)C1=C(C)NC(C)=C(C(=O)OC(C)C)C1c1cccc([N+](=O)[O-])c1 (stereo unspecified) : reported solubility (mole fraction) = ?
Found: 0.0106

---

# assay context: in methyl acetate, 278.15 K
measured metric: solubility (mole fraction)
Format: numeric value only, no unit, no commentary.

Lookup: Any idea what its solubility (mole fraction) is? The compound is COCCOC(=O)C1=C(C)NC(C)=C(C(=O)OC(C)C)C1c1cccc([N+](=O)[O-])c1 (stereo unspecified)
Found: 0.00456

---

# assay context: in acetone, 303.15 K
measured metric: solubility (mole fraction)
A bare number is all that is needed in reply.

Lookup: Reported solubility (mole fraction), compound COCCOC(=O)C1=C(C)NC(C)=C(C(=O)OC(C)C)C1c1cccc([N+](=O)[O-])c1 (stereo unspecified) : ____
Found: 0.0217

---

# assay context: in acetone, 293.15 K
measured metric: solubility (mole fraction)
Lab note: write the figure by itself, no unit.

Lookup: Item COCCOC(=O)C1=C(C)NC(C)=C(C(=O)OC(C)C)C1c1cccc([N+](=O)[O-])c1 (stereo unspecified) has what recorded solubility (mole fraction)?
Found: 0.0171

---

# assay context: in ethyl acetate, 298.15 K
measured metric: solubility (mole fraction)
# output: bare number, no unit

Lookup: Which solubility (mole fraction) is reported for this molecule? COCCOC(=O)C1=C(C)NC(C)=C(C(=O)OC(C)C)C1c1cccc([N+](=O)[O-])c1 (stereo unspecified)
Found: 0.00221

---

# assay context: in THF, 303.15 K
measured metric: solubility (mole fraction)
Lab note: jot down the number only; don't add units.

Lookup: Which solubility (mole fraction) reading was recorded for the compound COCCOC(=O)C1=C(C)NC(C)=C(C(=O)OC(C)C)C1c1cccc([N+](=O)[O-])c1 (stereo unspecified) ?
Found: 0.0259

---

# assay context: in ethanol, 308.15 K
measured metric: solubility (mole fraction)
Give a plain numeric answer without units written out.

Lookup: What value of measured solubility (mole fraction) is listed for COCCOC(=O)C1=C(C)NC(C)=C(C(=O)OC(C)C)C1c1cccc([N+](=O)[O-])c1 (stereo unspecified) ?
Found: 0.0272

---

# assay context: in isopropanol, 303.15 K
measured metric: solubility (mole fraction)

Lookup: Bench note: what solubility (mole fraction) did COCCOC(=O)C1=C(C)NC(C)=C(C(=O)OC(C)C)C1c1cccc([N+](=O)[O-])c1 (stereo unspecified) show?
Found: 0.0204

---

# assay context: in THF, 318.15 K
measured metric: solubility (mole fraction)
Form rule: numeric answer, no unit written next to it.

Lookup: Entry under review: COCCOC(=O)C1=C(C)NC(C)=C(C(=O)OC(C)C)C1c1cccc([N+](=O)[O-])c1 (stereo unspecified) . Reported solubility (mole fraction)?
Found: 0.0366

---

# assay context: in isopropanol, 298.15 K
measured metric: solubility (mole fraction)
Provide a numeric answer; units are not to be included.

Lookup: Find the recorded solubility (mole fraction) belonging to COCCOC(=O)C1=C(C)NC(C)=C(C(=O)OC(C)C)C1c1cccc([N+](=O)[O-])c1 (stereo unspecified) and report it.
Found: 0.0183

---

# assay context: in methyl acetate, 283.15 K
measured metric: solubility (mole fraction)
Give only the figure.

Lookup: I would be grateful if you could share the reported solubility (mole fraction) for COCCOC(=O)C1=C(C)NC(C)=C(C(=O)OC(C)C)C1c1cccc([N+](=O)[O-])c1 (stereo unspecified) .
Found: 0.00506

---

# assay context: in methyl acetate, 308.15 K
measured metric: solubility (mole fraction)
Note: the reply should be a number with no unit written.

Lookup: Reported solubility (mole fraction) for COCCOC(=O)C1=C(C)NC(C)=C(C(=O)OC(C)C)C1c1cccc([N+](=O)[O-])c1 (stereo unspecified) : what is it?
Found: 0.00898

---

# assay context: in n-propanol, 278.15 K
measured metric: solubility (mole fraction)
In your answer, state the number alone without any accompanying words.

Lookup: Entry under review: COCCOC(=O)C1=C(C)NC(C)=C(C(=O)OC(C)C)C1c1cccc([N+](=O)[O-])c1 (stereo unspecified) . Reported solubility (mole fraction)?
Found: 0.011

---

# assay context: in acetone, 278.15 K
measured metric: solubility (mole fraction)

Lookup: Give its solubility (mole fraction) value. Item: COCCOC(=O)C1=C(C)NC(C)=C(C(=O)OC(C)C)C1c1cccc([N+](=O)[O-])c1 (stereo unspecified)
Found: 0.012

---

# assay context: in THF, 283.15 K
measured metric: solubility (mole fraction)
Form rule: numeric answer, no unit written next to it.

Lookup: What value of solubility (mole fraction) has been recorded for this entry: COCCOC(=O)C1=C(C)NC(C)=C(C(=O)OC(C)C)C1c1cccc([N+](=O)[O-])c1 (stereo unspecified)
Found: 0.016

---

# assay context: in acetonitrile, 308.15 K
measured metric: solubility (mole fraction)
Number, no unit, nothing else.

Lookup: Give the measured solubility (mole fraction) of COCCOC(=O)C1=C(C)NC(C)=C(C(=O)OC(C)C)C1c1cccc([N+](=O)[O-])c1 (stereo unspecified) .
Found: 0.00437

---

# assay context: in isopropanol, 318.15 K
measured metric: solubility (mole fraction)
Respond numerically, and do not add a unit to the figure.

Lookup: // query solubility (mole fraction) value for entry COCCOC(=O)C1=C(C)NC(C)=C(C(=O)OC(C)C)C1c1cccc([N+](=O)[O-])c1 (stereo unspecified)
Found: 0.0278

---

# assay context: in methanol, 278.15 K
measured metric: solubility (mole fraction)
Reply briefly: the number, and no unit.

Lookup: Form field: reported solubility (mole fraction) of COCCOC(=O)C1=C(C)NC(C)=C(C(=O)OC(C)C)C1c1cccc([N+](=O)[O-])c1 (stereo unspecified)
Found: 0.0157

---

# assay context: in isopentanol, 288.15 K
measured metric: solubility (mole fraction)
// keep it numeric: no unit symbol after the value

Lookup: Find the recorded solubility (mole fraction) belonging to COCCOC(=O)C1=C(C)NC(C)=C(C(=O)OC(C)C)C1c1cccc([N+](=O)[O-])c1 (stereo unspecified) and report it.
Found: 0.00815

---

# assay context: in cyclohexanone, 278.15 K
measured metric: solubility (mole fraction)

Lookup: I have this compound here, COCCOC(=O)C1=C(C)NC(C)=C(C(=O)OC(C)C)C1c1cccc([N+](=O)[O-])c1 (stereo unspecified) , and I need its recorded solubility (mole fraction).
Found: 0.0145

---

# assay context: in sec-butanol, 313.15 K
measured metric: solubility (mole fraction)
Give the figure by itself; no unit, no explanation.

Lookup: If you can, please state the reported solubility (mole fraction) value of COCCOC(=O)C1=C(C)NC(C)=C(C(=O)OC(C)C)C1c1cccc([N+](=O)[O-])c1 (stereo unspecified) .
Found: 0.0198

---

# assay context: in sec-butanol, 303.15 K
measured metric: solubility (mole fraction)
Reply with just the number.

Lookup: Requested field: solubility (mole fraction). Item: COCCOC(=O)C1=C(C)NC(C)=C(C(=O)OC(C)C)C1c1cccc([N+](=O)[O-])c1 (stereo unspecified)
Found: 0.0167
